All values here come from ChEMBL document CHEMBL1142276.

# SYSTEM TESTED: Cannabinoid receptor 2 (Homo sapiens, UniProt P34972)
# Sequence (P34972 whole entry): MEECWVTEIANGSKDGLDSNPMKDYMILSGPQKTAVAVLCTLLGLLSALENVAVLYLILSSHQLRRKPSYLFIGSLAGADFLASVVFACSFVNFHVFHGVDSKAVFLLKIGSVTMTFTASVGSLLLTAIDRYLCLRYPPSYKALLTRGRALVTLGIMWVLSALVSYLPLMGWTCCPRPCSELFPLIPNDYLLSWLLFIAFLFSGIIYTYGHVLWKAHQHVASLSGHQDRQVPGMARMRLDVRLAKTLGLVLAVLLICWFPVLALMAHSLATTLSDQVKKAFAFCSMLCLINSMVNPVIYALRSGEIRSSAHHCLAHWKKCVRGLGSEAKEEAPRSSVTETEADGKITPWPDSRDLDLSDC
# PROCEDURE DETAILS: Displacement of [3H]CP-55940 from human recombinant CB2 receptor expressed in HEK cells
pKi: −log10 of the molar value.
The threshold is inclusive: pKi of exactly 6 counts as T; values below receive F.

INSERT INTO results (compound, answer_label) VALUES
  ('Cc1nn(-c2ccc(Cl)cc2)c(-n2cccc2)c1C(=O)NN1CCCCC1', 'F'),
  ('Cc1c(C(=O)NCc2ccc(Cl)c(Cl)c2)nn(-c2ccc(Cl)cc2Cl)c1-n1cccc1', 'T'),
  ('O=C(NN1CCCCC1)c1cc(-n2cccc2)n(-c2ccc(Cl)cc2)n1', 'F'),
  ('Cc1c(C(=O)NN2CCCCC2)nn(-c2ccc(Cl)c(Cl)c2)c1-n1c(C)ccc1C', 'T'),
  ('N#Cc1c(C(=O)NN2CCCCC2)nn(-c2ccccc2)c1-n1cccc1', 'F'),
  ('Cc1c(C(=O)NN2CCCCC2)nn(-c2ccc(F)cc2F)c1-n1cccc1', 'F'),
  ('N#Cc1c(C(=O)NCc2ccc(Cl)c(Cl)c2)nn(-c2ccccc2)c1-n1cccc1', 'F'),
  ('Cc1c(C(=O)NC2CCCCC2)nn(-c2ccc(F)cc2F)c1-n1c(C)ccc1C', 'T'),
  ('Cc1c(C(=O)NN2CCCCC2)nn(-c2c(Cl)cc(Cl)cc2Cl)c1-n1cccc1', 'F');
